Value source: patent US20120101169A1

# Experiment Summary: Food-effect and regimen pharmacokinetics, single 3-g daily ATQ dose (Example 5 Part 1)
# Format: in vivo, human
# Experimental Context: male, human, plasma, oral, 3 g, 3-g TID, standard meal, mean, N = 6; read-out: t1/2 (converted)

{"Compound": "CC1=C(C)C(=O)C(CC[C@](C)(O)CCC[C@H](C)CCC[C@H](C)CCCC(C)C)=C(C)C1=O [ATQ, alpha-tocopherolquinone]", "half-life": "5.37 h"}

* * *

# Experiment Summary: Food-effect and regimen pharmacokinetics, single 3-g daily ATQ dose (Example 5 Part 1)
# Type: in vivo, human
# Experimental Context: male, human, plasma, oral, 3 g, 3-g BID, standard meal, mean, N = 6; read-out: Vz/F

{"Compound String": "CC1=C(C)C(=O)C(CC[C@](C)(O)CCC[C@H](C)CCC[C@H](C)CCCC(C)C)=C(C)C1=O", "Vd/F, L": 143}
